The measurements presented in this section are drawn from patent US9920040B2.

Target: human GPR40 (Homo sapiens, UniProt O14842)
Sequence (O14842 whole entry): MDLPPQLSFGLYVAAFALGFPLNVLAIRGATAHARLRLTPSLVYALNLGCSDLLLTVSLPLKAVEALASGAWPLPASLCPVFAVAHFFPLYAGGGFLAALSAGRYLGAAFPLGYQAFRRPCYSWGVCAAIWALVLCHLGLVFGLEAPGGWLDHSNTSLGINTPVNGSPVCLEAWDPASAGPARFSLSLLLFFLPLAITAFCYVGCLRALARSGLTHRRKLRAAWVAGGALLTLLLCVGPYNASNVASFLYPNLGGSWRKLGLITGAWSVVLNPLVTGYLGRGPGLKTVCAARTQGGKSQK
Experiment: GPR40 calcium flux assay, human GPR40
Conditions: transfected HEK293 cells stably expressing human GPR40; multiple values = repeated testing; read-out: hGPR40 Ca^2+ Assay EC50
Description: Compounds were tested in a calcium flux assay using transfected HEK293 cells stably expressing either human GPR40 or rat GPR40. […] The cell plate and a plate of diluted compounds of Formula (I) were loaded into a fluorescent plate reader that added compounds onto the cells while measuring the fluorescence intensity of each well. The plate reader recorded fluorescence intensity at 1 second intervals for 8 min and provided the data for analysis in an Excel format. […]
pEC50: −log10 of the molar value.
Each entry gets not met if its pEC50 stays under 8, and met if its pEC50 is 8 or above.

Below, 3 molecules whose answers are already recorded.
COc1ccc(F)c(-c2onc(COc3cccc([C@@H](CC(=O)O)C4CC4)c3)c2OC2CC(C)(C)CC(C)(C)C2)c1 = met
COc1cc(-c2onc(COc3cccc([C@@H](CC(=O)O)C4CC4)c3)c2OC2CC(C)(C)C(C)(C)C2)c(F)cn1 = met
COc1ccc(F)c(-c2onc(COc3cccc([C@@H](CC(=O)O)C4CC4)c3)c2OC2CC(C)(C)C(C)(C)C2)c1 = met

input: # check: pEC50 of COc1cc(-c2onc(COc3cccc([C@@H](CC(=O)O)C4CC4)c3)c2CC(C)C)c(F)cn1 is greater than or equal to 8
output: not met

input: Could you please find out whether COc1cc(-c2onc(COc3cccc([C@@H](CC(=O)O)C4CC4)c3)c2OC2CC(C)(C)CC(C)(C)C2)c(F)cn1 has pEC50 that meets 8 or exceeds it?
output: met

input: Could you tell me if the measured pEC50 of COc1ccc(F)c(-c2onc(CCc3cccc(C(CC(=O)O)C4CC4)c3)c2C2CC2)c1 (centres unmarked) reaches 8 or more?
output: not met

input: Threshold query (pEC50 >= 8) on COc1ccc(F)c(-c2onc(COc3cc(C(CC(=O)O)C4CC4)c(Cl)cn3)c2C2=CCCC2(C)C)c1 (centres unmarked)
output: not met

input: Confirm if pEC50 reported for the molecule COc1ccc(F)c(-c2onc(COc3cccc([C@@H](CC(=O)O)C4CC4)c3)c2OCC2C(C)(C)C2(C)C)c1 is 8 or above.
output: not met

* * *

Target: rat GPR40 (Rattus norvegicus)
Sequence (Q8K3T4 whole entry): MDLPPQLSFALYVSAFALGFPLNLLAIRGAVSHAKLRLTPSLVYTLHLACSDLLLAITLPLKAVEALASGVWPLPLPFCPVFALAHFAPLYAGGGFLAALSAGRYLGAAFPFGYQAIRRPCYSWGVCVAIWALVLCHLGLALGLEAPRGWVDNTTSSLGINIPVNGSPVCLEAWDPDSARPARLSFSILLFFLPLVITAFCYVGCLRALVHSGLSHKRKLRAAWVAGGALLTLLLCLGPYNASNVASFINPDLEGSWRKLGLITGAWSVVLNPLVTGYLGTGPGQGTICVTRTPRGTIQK
Assay: GPR40 calcium flux assay, rat GPR40
Settings: transfected HEK293 cells stably expressing rat GPR40; multiple values = repeated testing; read-out: rGPR40 Ca^2+ Assay EC50
Protocol: Compounds were tested in a calcium flux assay using transfected HEK293 cells stably expressing either human GPR40 or rat GPR40. […] The cell plate and a plate of diluted compounds of Formula (I) were loaded into a fluorescent plate reader that added compounds onto the cells while measuring the fluorescence intensity of each well. The plate reader recorded fluorescence intensity at 1 second intervals for 8 min and provided the data for analysis in an Excel format. […]
measurement name: pEC50
Give bare numbers, as −log10 of the molar value.

Known results for compounds:
COc1ccc(F)c(-c2onc(CCc3cccc(C(CC(=O)O)C4CC4)c3)c2C2CC2)c1 (centres unmarked) [Cpd 7] = 7.16
COc1ccc(F)c(-c2onc(COc3cccc([C@@H](CC(=O)O)C4CC4)c3)c2OC2CC(C)(C)C(C)(C)C2)c1 [Cpd 1] = 8.22
COc1cc(-c2onc(COc3cccc([C@@H](CC(=O)O)C4CC4)c3)c2OC2CC(C)(C)CC(C)(C)C2)c(F)cn1 [Cpd 2] = 8.05
COc1ccc(F)c(-c2onc(COc3cc(C(CC(=O)O)C4CC4)c(Cl)cn3)c2C2=CCCC2(C)C)c1 (centres unmarked) [Cpd 9] = 6.86

Next item in the queue.
input: Would you kindly share the measured pEC50 for COc1cc(-c2onc(COc3cccc([C@@H](CC(=O)O)C4CC4)c3)c2OC2CC(C)(C)C(C)(C)C2)c(F)cn1 [Cpd 4] ?
output: 8.00
